- target_or_test_system: human CB2R (Homo sapiens)
- Construct: The coding region of human CB2R cDNA; expressed in transfected cells
- method: Human CB2 receptor (CB2R) binding inhibition, [3H]CP55940, membranes of CB2R-expressing CHO cells
molecules and their reported Ki
attribute_measured: Ki (nM)

molecule=CSC(=S)N1CC(C)(C)CSC1=Nc1ccccc1C(C)C observed=61
molecule=CCSC(=O)N1CCSC1=Nc1ccccc1C(C)C observed=9
molecule=CSC(=O)N1CC(C)(C)CSC1=Nc1ccccc1C(C)C observed=39
molecule=COc1ccccc1N=C1SCC(C)(C)CN1C(=S)SC observed=18
molecule=CSC(=S)N1CC(C)(C)CSC1=Nc1ccc(C)c(C)c1 observed=48
molecule=CSC(=S)N1CC(C)(C)CSC1=Nc1cccc(C(C)C)c1 observed=33
molecule=CSC(=S)N1CC(C)(C)CSC1=Nc1ccccc1SC observed=44
molecule=CCSC(=S)N1CC(C)(C)CSC1=Nc1ccccc1C(C)C observed=35
molecule=CCc1ccccc1N=C1SCC(C)(C)CN1C(=S)SC observed=54
molecule="CCC(C)c1ccccc1N=C1SCC(C)(C)CN1C(=S)SC (stereo not shown)" observed=6

====

attribute_measured: melting point

substance_smiles=CCOC(=O)N1CC(C)(C)CSC1=Nc1ccccc1C(C)C observed="84 to 86 °C"
substance_smiles=CSC(=S)N1CC(C)(C)CSC1=Nc1ccccc1C(C)C observed="77 to 79 °C"
substance_smiles=CCSC(=O)N1CCSC1=Nc1ccccc1C(C)C observed="79 to 81 °C"
substance_smiles=CCOc1ccc(/N=C2\SCC(C)(C)CN2C(=O)OC)cc1OCC observed="75 to 76 °C"

====

compounds and their reported pIC50
- target_or_test_system: human CB2R (Homo sapiens, UniProt P34972)
- Construct: The coding region of human CB2R cDNA; expressed in transfected cells
- Sequence (P34972 whole entry): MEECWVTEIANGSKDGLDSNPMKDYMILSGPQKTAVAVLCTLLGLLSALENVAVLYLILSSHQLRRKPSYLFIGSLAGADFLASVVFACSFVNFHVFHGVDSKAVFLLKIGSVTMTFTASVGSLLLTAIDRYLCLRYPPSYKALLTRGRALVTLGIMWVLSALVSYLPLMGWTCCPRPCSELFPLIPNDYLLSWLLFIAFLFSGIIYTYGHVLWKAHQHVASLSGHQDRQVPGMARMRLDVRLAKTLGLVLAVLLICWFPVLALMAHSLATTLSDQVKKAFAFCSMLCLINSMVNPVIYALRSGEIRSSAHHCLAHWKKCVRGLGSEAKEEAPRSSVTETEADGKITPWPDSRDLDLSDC
- method: CB2R-mediated suppression of forskolin-stimulated cAMP synthesis (agonistic activity), CHO cells expressing human CB2R
- Assay type: cell-based
pIC50: −log10 of the molar value.
attribute_measured: pIC50

compound="CCC(C)c1ccccc1N=C1SCC(C)(C)CN1C(=O)SC (stereo not shown)" observed=8.55
compound=CSC(=S)N1CC(C)(C)CSC1=Nc1ccccc1C(C)C observed=8.19
compound="CCC(C)c1ccccc1N=C1SCC(C)(C)CN1C(=S)SC (stereo not shown)" observed=8.26
compound="CCSC(=O)N1CC(C)(C)CSC1=Nc1ccccc1C(C)CC (stereo not shown)" observed=8.59

====

- target_or_test_system: human CB2R (Homo sapiens, UniProt P34972)
Output rule met for records whose Ki is lower than 40 nM, rule not met for records at or above 40 nM.

compound="CCSC(=O)N1CC(C)(C)CSC1=Nc1ccccc1C(C)CC (centres unmarked)" category="rule met"
compound=CSC(=O)N1CC(C)(C)CSC1=Nc1cccc(C(C)C)c1 category="rule met"
compound="CCC(C)c1ccccc1N=C1SCC(C)(C)CN1C(=O)SC (centres unmarked)" category="rule met"
compound="CCSC(=S)N1CC(C)(C)CSC1=Nc1ccccc1C(C)CC (centres unmarked)" category="rule met"
compound=COc1ccc(N=C2SCC(C)(C)CN2C(=S)SC)cc1OC category="rule not met"
